# Test system: 755483-174-R-J1-PDC complex spheroid growth, percent test/control
# ASSAY_TEXT: Anticancer human tumor 755483-174-R-J1-PDC patient-derived rhabdomyosarcoma cell line growth inhibition [Asc]; active = viability on the fitted dose curve at most 10% of control; inactive = the rest
# CONDITION_CONTEXT: second compound 0.0316 µM; first compound 0.316 µM
A correct response names exactly one class from active, inactive

C#Cc1c(F)ccc2cc(O)cc(-c3ncc4c(N5CC6CCC(C5)N6)nc(OCC56CCCN5CC(F)C6)nc4c3F)c12 (configuration not stated) + CNC(C)C(=O)NC1CN(S(=O)(=O)c2cccc(S(=O)(=O)N3CCC4CCC(C(=O)NC(c5ccccc5)c5ccccc5)N4C(=O)C(NC(=O)C(C)NC)C3)c2)CCC2CCC(C(=O)NC(c3ccccc3)c3ccccc3)N2C1=O : inactive
CCN1CCN(Cc2ccc(Nc3ncc(F)c(-c4cc(F)c5nc(C)n(C(C)C)c5c4)n3)nc2)CC1 + CNC(C)C(=O)NC1CN(S(=O)(=O)c2cccc(S(=O)(=O)N3CCC4CCC(C(=O)NC(c5ccccc5)c5ccccc5)N4C(=O)C(NC(=O)C(C)NC)C3)c2)CCC2CCC(C(=O)NC(c3ccccc3)c3ccccc3)N2C1=O : inactive

Which result was noted for this molecule in the test: O=C(c1cc(Cc2n[nH]c(=O)c3ccccc23)ccc1F)N1CCN(C(=O)C2CC2)CC1 + CNC(C)C(=O)NC1CN(S(=O)(=O)c2cccc(S(=O)(=O)N3CCC4CCC(C(=O)NC(c5ccccc5)c5ccccc5)N4C(=O)C(NC(=O)C(C)NC)C3)c2)CCC2CCC(C(=O)NC(c3ccccc3)c3ccccc3)N2C1=O
inactive

Which result was noted for this molecule in the test: C=C(F)C(=O)N1CCN(c2nc(OCC3CCCN3C)nc3c2CCN(c2cccc4cccc(Cl)c24)C3)CC1CC#N (configuration not stated) + CNC(C)C(=O)NC1CN(S(=O)(=O)c2cccc(S(=O)(=O)N3CCC4CCC(C(=O)NC(c5ccccc5)c5ccccc5)N4C(=O)C(NC(=O)C(C)NC)C3)c2)CCC2CCC(C(=O)NC(c3ccccc3)c3ccccc3)N2C1=O
inactive

Which result was noted for this molecule in the test: C=CC(=O)N1CCN(c2nc(=O)n(-c3c(C)ccnc3C(C)C)c3nc(-c4c(O)cccc4F)c(F)cc23)C(C)C1 (configuration not stated) + CNC(C)C(=O)NC1CN(S(=O)(=O)c2cccc(S(=O)(=O)N3CCC4CCC(C(=O)NC(c5ccccc5)c5ccccc5)N4C(=O)C(NC(=O)C(C)NC)C3)c2)CCC2CCC(C(=O)NC(c3ccccc3)c3ccccc3)N2C1=O
inactive

Which result was noted for this molecule in the test: COc1c(OCCCN2CCOCC2)ccc2c3n(c(=NC(=O)c4cnc(N)nc4)nc12)CCN3 + CNC(C)C(=O)NC1CN(S(=O)(=O)c2cccc(S(=O)(=O)N3CCC4CCC(C(=O)NC(c5ccccc5)c5ccccc5)N4C(=O)C(NC(=O)C(C)NC)C3)c2)CCC2CCC(C(=O)NC(c3ccccc3)c3ccccc3)N2C1=O
active

Which result was noted for this molecule in the test: O=C(c1ccc(F)c(F)c1Nc1ccc(I)cc1F)N1CC(O)([C@@H]2CCCCN2)C1 + CNC(C)C(=O)NC1CN(S(=O)(=O)c2cccc(S(=O)(=O)N3CCC4CCC(C(=O)NC(c5ccccc5)c5ccccc5)N4C(=O)C(NC(=O)C(C)NC)C3)c2)CCC2CCC(C(=O)NC(c3ccccc3)c3ccccc3)N2C1=O
inactive

###

# System: 755483-174-R-J1-PDC complex spheroid growth, percent test/control
# ASSAY_TEXT: Anticancer human tumor 755483-174-R-J1-PDC cell line growth inhibition [Asc];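 also: spheroids exposed to compounds for seven days before readout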
# CONDITION_CONTEXT: second compound 10 µM; first compound 0.0316 µM; active compounds read low
MEASURED_PARAMETER: viability, T/C (%)
Numbers only, in %.

Cn1ncnc1[C@H]1c2n[nH]c(=O)c3cc(F)cc(c23)N[C@@H]1c1ccc(F)cc1 + Cc1c(S(C)(=O)=O)c(-c2cc(F)cc(N3CCN(c4ccc(NS(=O)(=O)c5ccc(NC(CCN6CCC(C(=O)OCCCP(=O)(O)O)CC6)CSc6ccccc6)c(S(=O)(=O)C(F)(F)F)c5)cc4)CC3)c2)c(-c2ccc(Cl)cc2)n1C(C)C : 16.7

Now for the compound whose viability, T/C we want.
Could you tell me which viability, T/C is on file for COc1c(OCCCN2CCOCC2)ccc2c3n(c(=NC(=O)c4cnc(N)nc4)nc12)CCN3 + Cc1c(S(C)(=O)=O)c(-c2cc(F)cc(N3CCN(c4ccc(NS(=O)(=O)c5ccc(NC(CCN6CCC(C(=O)OCCCP(=O)(O)O)CC6)CSc6ccccc6)c(S(=O)(=O)C(F)(F)F)c5)cc4)CC3)c2)c(-c2ccc(Cl)cc2)n1C(C)C ?
19.1

###

# Test system: 755483-174-R-J1-PDC complex spheroid growth, percent test/control
# ASSAY_TEXT: Anticancer human tumor 755483-174-R-J1-PDC cell line growth inhibition [Asc];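 also: spheroids exposed to compounds for seven days before readout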
# CONDITION_CONTEXT: second compound 3.16 µM; first compound 0.1 µM; active compounds read low
MEASURED_PARAMETER: viability, T/C

Some entries whose results are on file:
O=C(c1ccc(F)c(F)c1Nc1ccc(I)cc1F)N1CC(O)([C@@H]2CCCCN2)C1 + Cc1c(S(C)(=O)=O)c(-c2cc(F)cc(N3CCN(c4ccc(NS(=O)(=O)c5ccc(NC(CCN6CCC(C(=O)OCCCP(=O)(O)O)CC6)CSc6ccccc6)c(S(=O)(=O)C(F)(F)F)c5)cc4)CC3)c2)c(-c2ccc(Cl)cc2)n1C(C)C : 29.5%
CNC(C)C(=O)NC1CN(S(=O)(=O)c2cccc(S(=O)(=O)N3CCC4CCC(C(=O)NC(c5ccccc5)c5ccccc5)N4C(=O)C(NC(=O)C(C)NC)C3)c2)CCC2CCC(C(=O)NC(c3ccccc3)c3ccccc3)N2C1=O (stereo not drawn) + Cc1c(S(C)(=O)=O)c(-c2cc(F)cc(N3CCN(c4ccc(NS(=O)(=O)c5ccc(NC(CCN6CCC(C(=O)OCCCP(=O)(O)O)CC6)CSc6ccccc6)c(S(=O)(=O)C(F)(F)F)c5)cc4)CC3)c2)c(-c2ccc(Cl)cc2)n1C(C)C : 12%

Could you tell me which viability, T/C is on file for O=C(c1cc(Cc2n[nH]c(=O)c3ccccc23)ccc1F)N1CCN(C(=O)C2CC2)CC1 + Cc1c(S(C)(=O)=O)c(-c2cc(F)cc(N3CCN(c4ccc(NS(=O)(=O)c5ccc(NC(CCN6CCC(C(=O)OCCCP(=O)(O)O)CC6)CSc6ccccc6)c(S(=O)(=O)C(F)(F)F)c5)cc4)CC3)c2)c(-c2ccc(Cl)cc2)n1C(C)C ?
32.7%

###

# Tested on: 755483-174-R-J1-PDC complex spheroid growth, percent test/control
# ASSAY_TEXT: Anticancer human tumor 755483-174-R-J1-PDC cell line growth inhibition [Asc];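 also: spheroids exposed to compounds for seven days before readout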
# CONDITION_CONTEXT: second compound 0.1 µM; first compound 0.1 µM; active compounds read low
MEASURED_PARAMETER: viability, T/C (%)
Answers are plain numbers, in %.

Give one value of viability, T/C per listed molecule.
1. C=C(F)C(=O)N1CCN(c2nc(OCC3CCCN3C)nc3c2CCN(c2cccc4cccc(Cl)c24)C3)CC1CC#N (centres undefined) + Cc1c(S(C)(=O)=O)c(-c2cc(F)cc(N3CCN(c4ccc(NS(=O)(=O)c5ccc(NC(CCN6CCC(C(=O)OCCCP(=O)(O)O)CC6)CSc6ccccc6)c(S(=O)(=O)C(F)(F)F)c5)cc4)CC3)c2)c(-c2ccc(Cl)cc2)n1C(C)C
2. Cn1ncnc1[C@H]1c2n[nH]c(=O)c3cc(F)cc(c23)N[C@@H]1c1ccc(F)cc1 + CNC(C)C(=O)NC1CN(S(=O)(=O)c2cccc(S(=O)(=O)N3CCC4CCC(C(=O)NC(c5ccccc5)c5ccccc5)N4C(=O)C(NC(=O)C(C)NC)C3)c2)CCC2CCC(C(=O)NC(c3ccccc3)c3ccccc3)N2C1=O
3. NC1CCC(NC2CC2c2ccccc2)CC1 (centres undefined) + CNC(C)C(=O)NC1CN(S(=O)(=O)c2cccc(S(=O)(=O)N3CCC4CCC(C(=O)NC(c5ccccc5)c5ccccc5)N4C(=O)C(NC(=O)C(C)NC)C3)c2)CCC2CCC(C(=O)NC(c3ccccc3)c3ccccc3)N2C1=O
4. O=C(c1ccc(F)c(F)c1Nc1ccc(I)cc1F)N1CC(O)([C@@H]2CCCCN2)C1 + CNC(C)C(=O)NC1CN(S(=O)(=O)c2cccc(S(=O)(=O)N3CCC4CCC(C(=O)NC(c5ccccc5)c5ccccc5)N4C(=O)C(NC(=O)C(C)NC)C3)c2)CCC2CCC(C(=O)NC(c3ccccc3)c3ccccc3)N2C1=O

1. 58.9
2. 9.96
3. 28.4
4. 40.3

###

I'd appreciate it if you could supply viability, T/C values for the items below.
# System: 755483-174-R-J1-PDC complex spheroid growth, percent test/control
# ASSAY_TEXT: Anticancer human tumor 755483-174-R-J1-PDC cell line growth inhibition [Asc];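 also: spheroids exposed to compounds for seven days before readout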
# CONDITION_CONTEXT: second compound 0.3 µM; first compound 0.0316 µM; active compounds read low

Some entries whose results are on file:
COc1c(OCCCN2CCOCC2)ccc2c3n(c(=NC(=O)c4cnc(N)nc4)nc12)CCN3 + CCN1C(C(=O)NC23CCC(C(=O)O)(CC2)CC3)C(c2cccc(Cl)c2F)C2(C(=O)Nc3cc(Cl)ccc32)C12CCCCC2 : 46.3%
CCN1CCN(Cc2ccc(Nc3ncc(F)c(-c4cc(F)c5nc(C)n(C(C)C)c5c4)n3)nc2)CC1 + CCN1C(C(=O)NC23CCC(C(=O)O)(CC2)CC3)C(c2cccc(Cl)c2F)C2(C(=O)Nc3cc(Cl)ccc32)C12CCCCC2 : 124%
O=C(c1cc(Cc2n[nH]c(=O)c3ccccc23)ccc1F)N1CCN(C(=O)C2CC2)CC1 + CCN1C(C(=O)NC23CCC(C(=O)O)(CC2)CC3)C(c2cccc(Cl)c2F)C2(C(=O)Nc3cc(Cl)ccc32)C12CCCCC2 : 80.3%
C=CC(=O)N1CCN(c2nc(=O)n(-c3c(C)ccnc3C(C)C)c3nc(-c4c(O)cccc4F)c(F)cc23)C(C)C1 (stereo not given) + CCN1C(C(=O)NC23CCC(C(=O)O)(CC2)CC3)C(c2cccc(Cl)c2F)C2(C(=O)Nc3cc(Cl)ccc32)C12CCCCC2 : 80.8%

Now for the compound whose viability, T/C we want.
Could you tell me which viability, T/C is on file for NC1CCC(NC2CC2c2ccccc2)CC1 (stereo not given) + CCN1C(C(=O)NC23CCC(C(=O)O)(CC2)CC3)C(c2cccc(Cl)c2F)C2(C(=O)Nc3cc(Cl)ccc32)C12CCCCC2 ?
95.1%
